Reported viability, T/C values for a set of molecules
test system: MDA-MB-231 multicell spheroids, viability; experiment: Anticancer human tumor MDA-MB-231 cell line growth inhibition [PI3K]; conditions: second compound 1 µM; first compound 0.3 µM; hits give low values;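 further: spheroids exposed to agents for seven days before reading; percent of vehicle control luminescence with DMSO treated spheroids as 100%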
Property name: viability, T/C (%)

Molecule	Experimental value
Cn1cnc2c(F)c(Nc3ccc(Br)cc3Cl)c(C(=O)NOCCO)cc21 + Cc1nc(NC(=O)N2CCCC2C(N)=O)sc1-c1ccnc(C(C)(C)C(F)(F)F)c1	37.4
Cn1cnc2c(F)c(Nc3ccc(Br)cc3Cl)c(C(=O)NOCCO)cc21 + CC(Nc1ncnc2nc[nH]c12)c1cc2cccc(Cl)c2c(=O)n1-c1ccccc1	39
Cn1cnc2c(F)c(Nc3ccc(Br)cc3Cl)c(C(=O)NOCCO)cc21 + CC(Nc1ccc2c(c1)OCCn1cc(N3C(=O)OCC3C(F)F)nc1-2)C(N)=O	37.7
Cn1cnc2c(F)c(Nc3ccc(Br)cc3Cl)c(C(=O)NOCCO)cc21 + COc1c(OCCCN2CCOCC2)ccc2c3n(c(=NC(=O)c4cnc(N)nc4)nc12)CCN3	9.99
